system: human recombinant cathepsin L (Homo sapiens, UniProt P07711)
Construct: made in house; host or cells: Escherichia coli
Sequence (P07711 114-333): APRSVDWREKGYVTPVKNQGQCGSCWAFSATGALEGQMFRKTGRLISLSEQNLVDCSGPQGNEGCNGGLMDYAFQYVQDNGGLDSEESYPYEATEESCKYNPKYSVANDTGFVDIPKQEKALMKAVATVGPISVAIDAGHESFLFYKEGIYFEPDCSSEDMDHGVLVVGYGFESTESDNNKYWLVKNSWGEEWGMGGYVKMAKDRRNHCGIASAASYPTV
assay.method.text: biochemical
Format: biochemical
condition.parameters: pH 5.5, Z-Phe-Arg-AMC substrate; read-out: Cathepsin L IC50
measure: IC50

*Q* Value lookup for IC50; key = O=C(O)CCC(F)(F)C(F)(F)C(F)(F)C(F)(F)C(F)(F)C(F)(F)C(F)(F)C(F)(F)F
*A* > 500 µM

###

As shown below, each of these compounds has a reported MIC value.
Test system: S. haemolyticus
assay.method.text: MIC, broth microdilution
Assay type: cell-based
condition.parameters: Staphylococcus haemolyticus, S.haemolyticus ORI_R1, mecA; read-out: MIC value
Answer format: numeric, µg/mL implied, no suffix.

Known results for compounds:
[
  {
    "compound": "CC(=O)N[C@H]1[C@H](O[C@@H]2c3ccc(c(Cl)c3)Oc3cc4cc(c3O)Oc3ccc(cc3Cl)C[C@H]3NC(=O)[C@H](n5cc(COCCOCCCC(F)(F)C(F)(F)C(F)(F)C(F)(F)F)nn5)c5ccc(O)c(c5)Oc5cc(O)cc(c5)[C@H](NC3=O)C(=O)N[C@H]4C(=O)N[C@H]3C(=O)N[C@@H]2C(=O)N[C@H](C(=O)O)c2cc(O)cc(O)c2-c2cc3ccc2O)O[C@H](CO)[C@@H](O)[C@@H]1O",
    "unit.descriptor": "µg/mL",
    "MIC": 1
  },
  {
    "compound": "CN[C@H](CC(C)C)C(=O)N[C@H]1C(=O)N[C@@H](CC(N)=O)C(=O)N[C@H]2C(=O)N[C@H]3C(=O)N[C@H](C(=O)N[C@H](C(=O)O)c4cc(O)cc(O)c4-c4cc3ccc4O)[C@H](O)c3ccc(c(Cl)c3)Oc3cc2cc(c3O[C@@H]2O[C@H](CO)[C@@H](O)[C@H](O)[C@H]2O[C@H]2C[C@](C)(N)[C@H](O)[C@H](C)O2)Oc2ccc(cc2Cl)[C@H]1O [VAN, vancomycin, reference compound]",
    "unit.descriptor": "µg/mL",
    "MIC": 16
  }
]

Attention now shifts to the item below.
*Q* Value lookup for MIC; key = CC(=O)N[C@H]1[C@H](O[C@@H]2c3ccc(c(Cl)c3)Oc3cc4cc(c3O)Oc3ccc(cc3Cl)C[C@H]3NC(=O)[C@H](n5cc(COCCCC(F)(F)C(F)(F)C(F)(F)C(F)(F)C(F)(F)C(F)(F)F)nn5)c5ccc(O)c(c5)Oc5cc(O)cc(c5)[C@H](NC3=O)C(=O)N[C@H]4C(=O)N[C@H]3C(=O)N[C@@H]2C(=O)N[C@H](C(=O)O)c2cc(O)cc(O)c2-c2cc3ccc2O)O[C@H](CO)[C@@H](O)[C@@H]1O
*A* 8

###

As shown below, each of these molecules has a reported MIC value.
Tested on: S. aureus
assay.method.text: MIC, broth microdilution
Format: cell-based
condition.parameters: Staphylococcus aureus, MRSA, read-out: Average MIC value, S. aureus MRSA, 7 strains
Answer format: numeric, µg/mL implied, no suffix.

[
  {
    "molecule": "CN[C@H](CC(C)C)C(=O)N[C@H]1C(=O)N[C@@H](CC(N)=O)C(=O)N[C@H]2C(=O)N[C@H]3C(=O)N[C@H](C(=O)N[C@H](C(=O)O)c4cc(O)cc(O)c4-c4cc3ccc4O)[C@H](O[C@H]3C[C@](C)(N)[C@@H](O)[C@H](C)O3)c3ccc(c(Cl)c3)Oc3cc2cc(c3O[C@@H]2O[C@H](CO)[C@@H](O)[C@H](O)[C@H]2O[C@H]2C[C@](C)(NCc3ccc(-c4ccc(Cl)cc4)cc3)[C@@H](O)[C@H](C)O2)Oc2ccc(cc2Cl)[C@H]1O [ORI, oritavancin, reference compound]",
    "measure": "MIC",
    "readout.number": 0.14
  }
]

*Q* Value lookup for MIC; key = CC(=O)N[C@H]1[C@H](O[C@@H]2c3ccc(c(Cl)c3)Oc3cc4cc(c3O)Oc3ccc(cc3Cl)C[C@H]3NC(=O)[C@H](NC(=O)CCC(F)(F)C(F)(F)C(F)(F)C(F)(F)C(F)(F)C(F)(F)C(F)(F)C(F)(F)F)c5ccc(O)c(c5)Oc5cc(O)cc(c5)[C@H](NC3=O)C(=O)N[C@H]4C(=O)N[C@H]3C(=O)N[C@@H]2C(=O)N[C@H](C(=O)O)c2cc(O)cc(O)c2-c2cc3ccc2O)O[C@H](CO)[C@@H](O)[C@@H]1O [Compound 5]
*A* 2.57

*Q* Value lookup for MIC; key = CC(=O)N[C@H]1[C@H](O[C@@H]2c3ccc(c(Cl)c3)Oc3cc4cc(c3O)Oc3ccc(cc3Cl)C[C@H]3NC(=O)[C@H](NC(=N)N)c5ccc(O)c(c5)Oc5cc(O)cc(c5)[C@H](NC3=O)C(=O)N[C@H]4C(=O)N[C@H]3C(=O)N[C@@H]2C(=O)N[C@H](C(=O)O)c2cc(O)cc(O)c2-c2cc3ccc2O)O[C@H](CO)[C@@H](O)[C@@H]1O [Compound 6]
*A* 0.125

*Q* Value lookup for MIC; key = CC(=O)N[C@H]1[C@H](O[C@@H]2c3ccc(c(Cl)c3)Oc3cc4cc(c3O)Oc3ccc(cc3Cl)C[C@H]3NC(=O)[C@H](n5cc(COCCCC(F)(F)C(F)(F)C(F)(F)C(F)(F)C(F)(F)C(F)(F)F)nn5)c5ccc(O)c(c5)Oc5cc(O)cc(c5)[C@H](NC3=O)C(=O)N[C@H]4C(=O)N[C@H]3C(=O)N[C@@H]2C(=O)N[C@H](C(=O)O)c2cc(O)cc(O)c2-c2cc3ccc2O)O[C@H](CO)[C@@H](O)[C@@H]1O [Compound 4]
*A* 1.71
